- Test system: E. coli ATCC 25922
- experimental.protocol: microbe, parasite or virus in culture
- Type: cell-based
- condition.context: ATCC 25922, 18 h
- Method: . The minimum inhibitory concentrations (MICs) of synthesized compounds were assessed according to the broth microdilution method using 96-well plates, in reference to the protocol of the Clinical and Laboratory Standards Institute (CLSI).[32],[33] […] All the experiments were performed in two independent duplicates, and the MIC was determined as the lowest concentration in which no visible growth was observed.
Bridge positions count the residues as written; N and C are the ends. Square brackets hold non-standard residues; d marks the D form. Peptide text beside a SMILES is read from it. d(aIle) = CC[C@H](C)[C@@H](N)C(=O)O; dNMeF = CN[C@H](Cc1ccccc1)C(=O)O; Nle = CCCC[C@H](N)C(=O)O; dDap = NC[C@@H](N)C(=O)O
Listed below: MIC E. coli ATCC 25922 values for each entry.

Sample records with MIC E. coli ATCC 25922:
CCCC[C@@H]1NC(=O)[C@H](CCCNC(=N)N)NC(=O)[C@H](C)NC(=O)[C@H](NC(=O)[C@H](CO)NC(=O)[C@@H](NC(=O)[C@H](NC(=O)[C@@H](CCCNC(=N)N)NC(=O)[C@H](CO)NC(=O)[C@@H](NC(=O)[C@H](N)Cc2ccccc2)[C@@H](C)CC)[C@@H](C)CC)[C@@H](C)CC)CNC1=O [TXGS-8] (H-[dF]IS[dR][d(aIle)]IS[dDap]AR[Nle]; lactam 8-C) :: 64 µg/mL
CC[C@H](C)[C@H](NC(=O)[C@H](N)Cc1ccccc1)C(=O)N[C@@H](CO)C(=O)N[C@H](CCCNC(=N)N)C(=O)N[C@@H](C(=O)N[C@H](C(=O)N[C@@H](CO)C(=O)N[C@@H]1CNC(=O)[C@H]([C@@H](C)CC)NC(=O)[C@H](CCCNC(=N)N)NC(=O)[C@H](C)NC1=O)[C@@H](C)CC)[C@@H](C)CC [TXGS-6] :: >512 µg/mL

# next compound below
Asked: Bench note: what MIC E. coli ATCC 25922 did CC[C@H](C)[C@@H]1NC(=O)[C@H](CCCNC(=N)N)NC(=O)[C@H](C)NC(=O)[C@H](NC(=O)[C@H](CO)NC(=O)[C@@H](NC(=O)[C@H](NC(=O)[C@@H](CCCNC(=N)N)NC(=O)[C@H](CO)NC(=O)[C@@H](NC(=O)[C@@H](Cc2ccccc2)NC)[C@@H](C)CC)[C@@H](C)CC)[C@@H](C)CC)CNC1=O [TXGS-5] (H-[dNMeF]IS[dR][d(aIle)]IS[dDap]ARI; lactam 8-C) show?
Given back: 256 µg/mL

###

- Test system: E. coli ATCC 25922
- experimental.protocol: microbe, parasite or virus in culture
- Assay type: cell-based
- condition.context: ATCC 25922, 18 h
Bridge positions count the residues as written; N and C are the ends. Square brackets hold non-standard residues; d marks the D form. Peptide text beside a SMILES is read from it. d(aIle) = CC[C@H](C)[C@@H](N)C(=O)O; dNMeF = CN[C@H](Cc1ccccc1)C(=O)O; Nle = CCCC[C@H](N)C(=O)O; dDap = NC[C@@H](N)C(=O)O
result.type: MIC E. coli ATCC 25922

Example cases with answers are listed next.
CCCC[C@@H]1NC(=O)[C@H](CCCNC(=N)N)NC(=O)[C@H](C)NC(=O)[C@H](NC(=O)[C@H](CO)NC(=O)[C@@H](NC(=O)[C@H](NC(=O)[C@@H](CCC(N)=O)NC(=O)[C@H](CO)NC(=O)[C@@H](NC(=O)[C@@H](Cc2ccccc2)NC)[C@@H](C)CC)[C@@H](C)CC)[C@@H](C)CC)CNC1=O :: >512 µg/mL
CC[C@H](C)[C@@H]1NC(=O)[C@H](CCCNC(=N)N)NC(=O)[C@H](C)NC(=O)[C@H](NC(=O)[C@H](CO)NC(=O)[C@@H](NC(=O)[C@H](NC(=O)[C@@H](CCC(N)=O)NC(=O)[C@H](CO)NC(=O)[C@@H](NC(=O)[C@@H](Cc2ccccc2)NC)[C@@H](C)CC)[C@@H](C)CC)[C@@H](C)CC)CNC1=O [TXGS-1, D-Dap8,Arg10-teixobactin, reference compound] :: >512 µg/mL
CCCC[C@@H]1NC(=O)[C@H](CCCNC(=N)N)NC(=O)[C@H](C)NC(=O)[C@H](NC(=O)[C@H](CO)NC(=O)[C@@H](NC(=O)[C@H](NC(=O)[C@@H](CCCNC(=N)N)NC(=O)[C@H](CO)NC(=O)[C@@H](NC(=O)[C@@H](Cc2ccccc2)NC)[C@@H](C)CC)[C@@H](C)CC)[C@@H](C)CC)CNC1=O [TXGS-7] (H-[dNMeF]IS[dR][d(aIle)]IS[dDap]AR[Nle]; lactam 8-C) :: 32 µg/mL

Asked: Can you share its MIC E. coli ATCC 25922? I mean this compound: CC[C@H](C)[C@H](NC(=O)[C@H](N)Cc1ccccc1)C(=O)N[C@@H](CO)C(=O)N[C@H](CCC(N)=O)C(=O)N[C@@H](C(=O)N[C@H](C(=O)N[C@@H](CO)C(=O)N[C@@H]1CNC(=O)[C@H]([C@@H](C)CC)NC(=O)[C@H](CCCNC(=N)N)NC(=O)[C@H](C)NC1=O)[C@@H](C)CC)[C@@H](C)CC
Given back: >512 µg/mL
